Tested on: Escherichia coli
Assay: In vitro antibacterial evaluation: minimum inhibitory concentration (MIC), broth dilution method
Assay type: cell-based
Conditions: 5×10^5 CFU/mL, 18 hours at 35° C.
In this section we review reported MIC Escherichia coli (GC 4560) values for a set of compounds.
Measured quantity: MIC Escherichia coli (GC 4560) (µg/mL)

CC(c1ccccc1)C1NC(=O)CNC(=O)C(CO)NC(=O)C(C(O)C2CNC(=N)N2C2OC(CO)C(O)C(O)C2O)NC(=O)C(C(O)C2CNC(=N)N2)NC(=O)C(Cc2ccc(OC3OC(CO)C(OC4OC5COC(Cc6ccc(F)cc6)OC5C(O)C4O)C(O)C3O)cc2)NC1=O (stereo not shown) [Example 121]; 1
CC(c1ccccc1)C1NC(=O)CNC(=O)C(CO)NC(=O)C(C(O)C2CNC(=N)N2C2OC(CO)C(O)C(O)C2O)NC(=O)C(C(O)C2CNC(=N)N2)NC(=O)C(Cc2ccc(OC3OC(CO)C(OC4OC(CO)C(O)C5OC(CC67CC8CC(CC(C8)C6)C7)OC45)C(O)C3O)cc2)NC1=O (stereo not shown) [Example 128]; 4
CCC(CC)C1OCC2OC(OC3C(CO)OC(Oc4ccc(CC5NC(=O)C(C(C)c6ccccc6)NC(=O)CNC(=O)C(CO)NC(=O)C(C(O)C6CNC(=N)N6C6OC(CO)C(O)C(O)C6O)NC(=O)C(C(O)C6CNC(=N)N6)NC5=O)cc4)C(O)C3O)C(O)C(O)C2O1 (stereo not shown) [Example 116]; 1
CC(C)=CCCC(C)C1OCC2OC(OC3C(CO)OC(Oc4ccc(CC5NC(=O)C(C(C)c6ccccc6)NC(=O)CNC(=O)C(CO)NC(=O)C(C(O)C6CNC(=N)N6C6OC(CO)C(O)C(O)C6O)NC(=O)C(C(O)C6CNC(=N)N6)NC5=O)cc4)C(O)C3O)C(O)C(O)C2O1 (stereo not shown) [Example 125]; 32
CC(c1ccccc1)C1NC(=O)CNC(=O)C(CO)NC(=O)C(C(O)C2CNC(=N)N2C2OC(CO)C(O)C(O)C2O)NC(=O)C(C(O)C2CNC(=N)N2)NC(=O)C(Cc2ccc(OC3OC(CO)C(OC4OC5COC(C6CCCC6)OC5C(O)C4O)C(O)C3O)cc2)NC1=O (stereo not shown) [Example 117]; 1
